System: S. pneumoniae ATCC 51916
Assay: MIC, S. pneumoniae
Format: cell-based
Details: S. pneumoniae
READOUT: MIC Spn52

>>> result("CCc1[nH]c2nc(Sc3cc(-n4cccn4)nc(C)n3)nc(NCC3CCCO3)c2c1Cl (centres unmarked)")
"> 64 mg/L"
>>> result("CCc1[nH]c2nc(Cc3cccnc3)nc(N3CCC(N4CCOCC4)C3)c2c1Cl (centres unmarked)")
"> 64 mg/L"
>>> result("CCc1[nH]c2nc(Sc3cnc4c(N)nc(C)nc4c3)nc(OCCn3ccnc3)c2c1Cl.O=C(O)C(F)(F)F")
"> 64 mg/L"
>>> result("CCc1[nH]c2nc(Sc3nc4ncccc4c(=O)[nH]3)nc(N3CC(O)C3)c2c1Cl")
"> 64 mg/L"
>>> result("CCc1[nH]c2nc(Cc3cccnc3)nc(N3CCC(C(C)N4CCOCC4)CC3)c2c1Cl (centres unmarked)")
"> 64 mg/L"
>>> result("CCc1[nH]c2nc(Oc3cncnc3)nc(Oc3cncnc3)c2c1Cl.O=C(O)C(F)(F)F [700,551]")
"4 mg/L"
>>> result("CCc1[nH]c2nc(Sc3cc(=O)n(CCC4CCCCC4)c(=O)[nH]3)nc(N3CC(O)C3)c2c1Br")
"> 64 mg/L"
>>> result("CCc1[nH]c2nc(Sc3ccc4c(c3)C(=O)NC4)nc(N3CC[C@@H](N)C3)c2c1Cl")
"8 mg/L"
